Each entry below carries its reported pIC50.
molecular target: TNFα / TNFα receptor (TNFα R1/Fc) (Homo sapiens, UniProt P01375); construct: purchased R&D Systems; test: Inhibition of binding of TNFα to the TNFα receptor (plate ELISA competition); conditions: Table 2; read-out: Activity (IC50, inhibition of TNFα binding to TNFα R1/Fc)
Sequence (P01375 77-233 limits assumed, species assumed): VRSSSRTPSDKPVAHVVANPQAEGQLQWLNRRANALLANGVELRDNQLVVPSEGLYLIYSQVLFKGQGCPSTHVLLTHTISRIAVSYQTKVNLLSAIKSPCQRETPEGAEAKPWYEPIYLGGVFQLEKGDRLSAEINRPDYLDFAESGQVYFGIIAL
pIC50: −log10 of the molar value. Numbered stars: 1 amine (or outer) side, 2 acyl side, 3 side chain; on linkers, the order of the positions; unused ones are H or OH. Bridge positions count the residues as written; N and C are the ends. Square brackets hold non-standard residues; d marks the D form. Peptide text beside a SMILES is read from it. Tartaroyl(2R,3R-(OAc)2) = CC(=O)O[C@@H](C(=O)[*:1])[C@@H](OC(C)=O)C(=O)[*:2]; Bip = N[C@@H](Cc1ccc(-c2ccccc2)cc1)C(=O)O; Phe(4-NH2) = Nc1ccc(C[C@H](N)C(=O)O)cc1; Lys(Me2) = CN(C)CCCC[C@H](N)C(=O)O; d2Thi = N[C@H](Cc1cccs1)C(=O)O; Suc = O=C(CCC(=O)[*:2])[*:1]
Recorded endpoint: pIC50

Compound: CN(C)CCCC[C@@H]1NC(=O)[C@@H](Cc2cccs2)NC(=O)CCC(=O)Nc2ccc(cc2)C[C@@H](C(=O)O)NC(=O)[C@@H](Cc2ccccc2)NC1=O [Compound 203] ([d2Thi][Lys(Me2)][dF][Phe(4-NH2)]-OH; linker N-4 via Suc)
Recorded endpoint: pIC50
Reading: < 4.00
--
Compound: CC(=O)O[C@H]1C(=O)Nc2ccc(cc2)C[C@@H](C(=O)O)NC(=O)[C@@H](Cc2ccccc2)NC(=O)[C@H](Cc2ccc(-c3ccccc3)cc2)NC(=O)[C@@H](Cc2cccs2)NC(=O)[C@@H]1OC(C)=O [Compound 223] ([d2Thi][Bip][dF][Phe(4-NH2)]-OH; linker N-4 via Tartaroyl(2R,3R-(OAc)2))
Recorded endpoint: pIC50
Reading: 4.00 to 4.52
--
Compound: O=C1COc2ccc(cc2)C[C@@H](C(=O)O)NC(=O)[C@H](CCc2ccccc2)NC(=O)[C@@H](Cc2ccc(-c3ccc(O)cc3)cc2)NC(=O)[C@H](Cc2cccs2)N1 [Compound 656]
Recorded endpoint: pIC50
Reading: > 5.00
--
Compound: O=C(O)[C@@H]1Cc2ccc(cc2)NC(=O)[C@H](O)[C@@H](O)C(=O)N[C@H](Cc2cccs2)C(=O)N[C@@H](Cc2ccc(Cl)cc2Cl)C(=O)N[C@H](Cc2ccccc2)C(=O)N1 [Compound 189]
Recorded endpoint: pIC50
Reading: < 4.00

* * *

Target: TNFα / TNFα receptor (TNFα R1/Fc) (Homo sapiens, UniProt P01375)
Construct: purchased R&D Systems
Assay: Inhibition of binding of TNFα to the TNFα receptor (plate ELISA competition)
Details: Table 2; read-out: Activity (IC50, inhibition of TNFα binding to TNFα R1/Fc)
Protocol: The compounds listed in Table 2 below were assayed for ability to inhibit binding of TNFα to the TNFα receptor (TNFα R1/Fc). The assays were performed as described in the following procedure: TNFα (R&D Systems) was coated on high binding plate wells (Corning 96-well) at a single uniform concentration of 15 nM, 100 μL/well in PBS. […] The TMB reaction was stopped with the addition of 0.5N HCl and then the plate was read for absorbance at 450 nm.
Numbered stars: 1 amine (or outer) side, 2 acyl side, 3 side chain; on linkers, the order of the positions; unused ones are H or OH. Bridge positions count the residues as written; N and C are the ends. Square brackets hold non-standard residues; d marks the D form. Peptide text beside a SMILES is read from it. Tartaroyl(2R,3R-(OAc)2) = CC(=O)O[C@@H](C(=O)[*:1])[C@@H](OC(C)=O)C(=O)[*:2]; Phe(4-(4-pyridyl)) = N[C@@H](Cc1ccc(-c2ccncc2)cc1)C(=O)O; Phe(4-CF3) = N[C@@H](Cc1ccc(C(F)(F)F)cc1)C(=O)O; Bip = N[C@@H](Cc1ccc(-c2ccccc2)cc1)C(=O)O; dPhe(4-NH2) = Nc1ccc(C[C@@H](N)C(=O)O)cc1; Phe(4-Br) = N[C@@H](Cc1ccc(Br)cc1)C(=O)O; Phe(4-NH2) = Nc1ccc(C[C@H](N)C(=O)O)cc1; d(hPhe) = N[C@H](CCc1ccccc1)C(=O)O; d2Thi = N[C@H](Cc1cccs1)C(=O)O; Suc = O=C(CCC(=O)[*:2])[*:1]

Compound: CC(=O)O[C@H]1C(=O)Nc2ccc(cc2)C[C@H](C(=O)O)NC(=O)[C@@H](CCc2ccccc2)NC(=O)[C@H](Cc2ccc(Br)cc2)NC(=O)[C@@H](Cc2cccs2)NC(=O)[C@@H]1OC(C)=O [Compound 219] ([d2Thi][Phe(4-Br)][d(hPhe)][dPhe(4-NH2)]-OH; linker N-4 via Tartaroyl(2R,3R-(OAc)2))
IC50: < 10 µM

Compound: O=C1CCC(=O)N[C@H](Cc2cccs2)C(=O)N[C@@H](Cc2ccc(-c3ccccc3)cc2)C(=O)N[C@@H](Cc2ccccc2)C(=O)N[C@H](C(=O)O)Cc2ccc(cc2)N1 [Compound 195] ([d2Thi][Bip]F[Phe(4-NH2)]-OH; linker N-4 via Suc)
IC50: > 100 µM

Compound: O=C1CCC(=O)N[C@H](CCc2ccccc2)C(=O)N[C@@H](Cc2ccc(-c3ccncc3)cc2)C(=O)N[C@H](Cc2ccccc2)C(=O)N[C@H](C(=O)O)Cc2ccc(cc2)N1 [Compound 419] ([d(hPhe)][Phe(4-(4-pyridyl))][dF][Phe(4-NH2)]-OH; linker N-4 via Suc)
IC50: 10 to 30 µM

Compound: O=C(O)[C@@H]1Cc2ccc(cc2)NC(=O)[C@H](O)[C@@H](O)C(=O)N[C@H](Cc2ccc(F)c(F)c2)C(=O)N[C@@H](Cc2ccc(-c3ccccc3)cc2)C(=O)N[C@H](Cc2ccccc2)C(=O)N1
IC50: 10 to 30 µM

Compound: O=C1CCC(=O)N[C@H](CCc2ccccc2)C(=O)N[C@@H](Cc2ccc(C(F)(F)F)cc2)C(=O)N[C@H](Cc2ccccc2)C(=O)N[C@@H](C(=O)N[C@H](Cc2ccccc2)C(=O)O)Cc2ccc(cc2)N1 [Compound 13] ([d(hPhe)][Phe(4-CF3)][dF][dPhe(4-NH2)][dF]-OH; linker N-4 via Suc)
IC50: > 100 µM

Compound: CC(=O)O[C@H]1C(=O)Nc2ccc(cc2)C[C@H](C(=O)O)NC(=O)[C@@H](Cc2ccccc2)NC(=O)[C@H](Cc2ccc(-c3ccccc3)cc2)NC(=O)[C@@H](Cc2ccccc2)NC(=O)[C@@H]1OC(C)=O [Compound 222] ([dF][Bip][dF][dPhe(4-NH2)]-OH; linker N-4 via Tartaroyl(2R,3R-(OAc)2))
IC50: > 100 µM

Compound: O=C1COc2ccc(cc2)C[C@@H](C(=O)O)NC(=O)[C@H](CCc2ccccc2)NC(=O)[C@@H](Cc2ccc(-c3ccccc3)cc2)NC(=O)C(c2ccccc2)N1 (stereo partly shown)
IC50: 10 to 30 µM
